Source of measurements: the supplement of paper PMC10598134

assay: collision cross section of modified peptide (TIMS, N2, iRT-aligned); higher = larger / more extended gas-phase ion; conditions: charge state: 2; modification: HexNAc (ST)
Field: collision cross section. Provide a value for each of the sequences that follow.
API: value field is a number in Å²; no unit string.

Need collision cross section, item SQAGASELGPFSDPR [_SQAGASELGPFS(HexNAc (ST))DPR_] 425.39

Need collision cross section, item ESISVSSEQLAQFR [_ES(HexNAc (ST))ISVSSEQLAQFR_] 438.25

Need collision cross section, item SQLANTEPTK [_SQLANT(HexNAc (ST))EPTK_] 372.78

Need collision cross section, item KVTLSVLSR [_KVT(HexNAc (ST))LSVLSR_] 375.11

###

assay: collision cross section of modified peptide (TIMS, N2, iRT-aligned); higher = larger / more extended gas-phase ion; conditions: charge state: 2; modification: GlyGly (K)
So basically: collision cross section at 400 Å² or higher? That is 1 (yes). Lower than 400 Å²? That is 0 (no).

Assess whether reported collision cross section for SGFGKFER [_SGFGK(GlyGly (K))FER_] sits at 400 Å² or higher. 0 (no)

Assess whether reported collision cross section for LTSLNVKYNNDK [_LTSLNVK(GlyGly (K))YNNDK_] sits at 400 Å² or higher. 1 (yes)

Assess whether reported collision cross section for VDVEVPDVSLEGPEGKLK [_VDVEVPDVSLEGPEGK(GlyGly (K))LK_] sits at 400 Å² or higher. 1 (yes)

Assess whether reported collision cross section for ALLQAKASGK [_ALLQAK(GlyGly (K))ASGK_] sits at 400 Å² or higher. 0 (no)

Assess whether reported collision cross section for PANEKATDDYHYEK [_PANEK(GlyGly (K))ATDDYHYEK_] sits at 400 Å² or higher. 1 (yes)

Assess whether reported collision cross section for DASTLQSQKAEGTGDAK [_DASTLQSQK(GlyGly (K))AEGTGDAK_] sits at 400 Å² or higher. 1 (yes)

Assess whether reported collision cross section for LAEEENKAK [_LAEEENK(GlyGly (K))AK_] sits at 400 Å² or higher. 0 (no)

Assess whether reported collision cross section for DESFLGKLGGTLAR [_DESFLGK(GlyGly (K))LGGTLAR_] sits at 400 Å² or higher. 1 (yes)

Assess whether reported collision cross section for GAEKTEVAEPR [_GAEK(GlyGly (K))TEVAEPR_] sits at 400 Å² or higher. 0 (no)

###

Field: collision cross section. Provide a value for each of the sequences that follow.
assay: collision cross section of modified peptide (TIMS, N2, iRT-aligned); higher = larger / more extended gas-phase ion; conditions: charge state: 3; modification: Dimethyl (K)
± gives the standard deviation.
Entry format: amount then unit.

Need collision cross section, item DFDTALKHYDK [_DFDTALK(Dimethyl (K))HYDK_] 452.29 ± 1.2 Å²

Need collision cross section, item SGKFTQQDIDEAK [_SGK(Dimethyl (K))FTQQDIDEAK_] 466.84 ± 1.6 Å²

Need collision cross section, item TTEETSKPK [_TTEETSK(Dimethyl (K))PK_] 409.31 Å²

Need collision cross section, item FSAYIKNSNPALNDNLEK [_FSAYIK(Dimethyl (K))NSNPALNDNLEK_] 510.58 ± 2.9 Å²

Need collision cross section, item LLFSNTAAQKLR [_LLFSNTAAQK(Dimethyl (K))LR_] 473.77 ± 2.6 Å²

Need collision cross section, item GETASKLQSEISR [_GETASK(Dimethyl (K))LQSEISR_] 460.41 ± 2.6 Å²

Need collision cross section, item DDSFLGKLGGTLAR [_DDSFLGK(Dimethyl (K))LGGTLAR_] 473.5 ± 1.2 Å²

Need collision cross section, item SPDEAYAIAKK [_SPDEAYAIAK(Dimethyl (K))K_] 437.31 ± 0.63 Å²

Need collision cross section, item FLQEFYQDDELGKK [_FLQEFYQDDELGK(Dimethyl (K))K_] 499.62 ± 0.75 Å²

Need collision cross section, item GADFLVTEVENGGSLGSKK [_GADFLVTEVENGGSLGSK(Dimethyl (K))K_] 539.44 Å²

Need collision cross section, item VLTANSNPSSPSAAKR [_VLTANSNPSSPSAAK(Dimethyl (K))R_] 518.06 ± 0.76 Å²

Need collision cross section, item DSSPTTNSKLSALQR [_DSSPTTNSK(Dimethyl (K))LSALQR_] 472.53 ± 1.6 Å²

Need collision cross section, item DAEAAEATAEGALKAEK [_DAEAAEATAEGALK(Dimethyl (K))AEK_] 536.26 ± 0.61 Å²

Need collision cross section, item IINEPTAAAIAYGLDKK [_IINEPTAAAIAYGLDK(Dimethyl (K))K_] 554.13 ± 0.54 Å²

Need collision cross section, item LLEEEDSKLK [_LLEEEDSK(Dimethyl (K))LK_] 435.11 ± 2.1 Å²

Need collision cross section, item YEEIVKEVSTYIK [_YEEIVK(Dimethyl (K))EVSTYIK_] 492.52 Å²

Need collision cross section, item GEVGAGAGPGAQAGPSAKR [_GEVGAGAGPGAQAGPSAK(Dimethyl (K))R_] 490.58 ± 1.6 Å²

Need collision cross section, item DTPTSAGPNSFNKGK [_DTPTSAGPNSFNK(Dimethyl (K))GK_] 455.12 ± 1.6 Å²

Need collision cross section, item ITGKNQVTATK [_ITGK(Dimethyl (K))NQVTATK_] 427.9 Å²

Need collision cross section, item SITHSTVGSKGEK [_SITHSTVGSK(Dimethyl (K))GEK_] 464.51 ± 2.1 Å²

Need collision cross section, item SLGEPAAGEGSAKR [_SLGEPAAGEGSAK(Dimethyl (K))R_] 473.88 ± 2.6 Å²

###

Field: collision cross section. Provide a value for each of the substances that follow.
test: collision cross section of modified peptide (TIMS, N2, iRT-aligned); higher = larger / more extended gas-phase ion; conditions: charge state: 3; modification: Citrullination (R)
API: value field is a number in Å²; no unit string.

Need collision cross section, item APPIDRSILPTAPR [_APPIDR(Citrullination (R))SILPTAPR_] 480.52

Need collision cross section, item RLPNVHGR [_R(Citrullination (R))LPNVHGR_] 417.11

Need collision cross section, item SRGGGGNFGPGPGSNFR [_SR(Citrullination (R))GGGGNFGPGPGSNFR_] 461.31

Need collision cross section, item HGGSGGRGVSVSSAR [_HGGSGGR(Citrullination (R))GVSVSSAR_] 485.51

Need collision cross section, item GRGVGSPEPGPTAPYLGR [_GR(Citrullination (R))GVGSPEPGPTAPYLGR_] 509.44

Need collision cross section, item PLRAASPFR [_PLR(Citrullination (R))AASPFR_] 442.41

Need collision cross section, item LQLGTPPPLLAARLVPPR [_LQLGTPPPLLAAR(Citrullination (R))LVPPR_] 576.16

Need collision cross section, item LVLPSQAQARLPSGEVVK [_LVLPSQAQAR(Citrullination (R))LPSGEVVK_] 522.33

Need collision cross section, item TPSSFRQPFTPTSR [_TPSSFR(Citrullination (R))QPFTPTSR_] 499.72

Need collision cross section, item GSGLGARGSSYGVTSTESYK [_GSGLGAR(Citrullination (R))GSSYGVTSTESYK_] 548.1

Need collision cross section, item GRGTGEAEEEYVGPR [_GR(Citrullination (R))GTGEAEEEYVGPR_] 487

Need collision cross section, item FGDSRGGGGNFGPGPGSNFR [_FGDSR(Citrullination (R))GGGGNFGPGPGSNFR_] 490.23

Need collision cross section, item VEPGSLESSPGLGRGR [_VEPGSLESSPGLGR(Citrullination (R))GR_] 495.92

Need collision cross section, item TLHLSHLNRFPAR [_TLHLSHLNR(Citrullination (R))FPAR_] 509.04

Need collision cross section, item GRGVGSPEPGPTAPYLGRR [_GR(Citrullination (R))GVGSPEPGPTAPYLGRR_] 497.66

Need collision cross section, item GRGAANDSTQFTVAGR [_GR(Citrullination (R))GAANDSTQFTVAGR_] 488.59

Need collision cross section, item GGPGGELPRGPQAGLGPR [_GGPGGELPR(Citrullination (R))GPQAGLGPR_] 502.3

Need collision cross section, item GGFQNRGGGSGGGGNYR [_GGFQNR(Citrullination (R))GGGSGGGGNYR_] 503.84

Need collision cross section, item SFDEVEGVFGRGGGR [_SFDEVEGVFGR(Citrullination (R))GGGR_] 503.12

Need collision cross section, item GGGGGGGGGAPRGR [_GGGGGGGGGAPR(Citrullination (R))GR_] 420.82

Need collision cross section, item GSYLGGYSAGRGIYSR [_GSYLGGYSAGR(Citrullination (R))GIYSR_] 475.97

Need collision cross section, item HFGPVPPSQGRGR [_HFGPVPPSQGR(Citrullination (R))GR_] 445.8

Need collision cross section, item HHTLRQAPQPQSSLQR [_HHTLR(Citrullination (R))QAPQPQSSLQR_] 502.84

Need collision cross section, item TQAEGQGQGRGLGLVSAVR [_TQAEGQGQGR(Citrullination (R))GLGLVSAVR_] 549.33

Need collision cross section, item VRFHNPR [_VR(Citrullination (R))FHNPR_] 406.17

Need collision cross section, item DNNNSNNRGSYNR [_DNNNSNNR(Citrullination (R))GSYNR_] 460.73

Need collision cross section, item DFAFYNPRLQGK [_DFAFYNPR(Citrullination (R))LQGK_] 473.76

Need collision cross section, item PGTPAGYGRGR [_PGTPAGYGR(Citrullination (R))GR_] 431.14

Need collision cross section, item VTPHPSPRGSPLPTPK [_VTPHPSPR(Citrullination (R))GSPLPTPK_] 504.78

Need collision cross section, item SHLRHAIPSAER [_SHLR(Citrullination (R))HAIPSAER_] 492.66

Need collision cross section, item GFGRGGAESHTFK [_GFGR(Citrullination (R))GGAESHTFK_] 465.74

Need collision cross section, item GGSGGRGVSVSSAR [_GGSGGR(Citrullination (R))GVSVSSAR_] 445.09

Need collision cross section, item AVPSSPAGSAARGR [_AVPSSPAGSAAR(Citrullination (R))GR_] 481.37

Need collision cross section, item FSHSVQNSERGK [_FSHSVQNSER(Citrullination (R))GK_] 441.33

Need collision cross section, item SRGAIISQYYNR [_SR(Citrullination (R))GAIISQYYNR_] 483.76

Need collision cross section, item AAHGRGALAEAAR [_AAHGR(Citrullination (R))GALAEAAR_] 458.38

Need collision cross section, item GIGRGTVQALHATGAR [_GIGR(Citrullination (R))GTVQALHATGAR_] 491.89

Need collision cross section, item HSPTLPEPGGLRLELPLSR [_HSPTLPEPGGLR(Citrullination (R))LELPLSR_] 513.82
